All figures here come from ChEMBL document CHEMBL3124798.

Tested on: A549
MEASUREMENT_PROTOCOL: Cytotoxicity against human A549 cells after 48 hrs by MTT assay
Type: functional, cell-based
CONDITION_SUMMARY: Homo sapiens, A549, 48 h; read-out: IC50
MEASURED_PARAMETER: IC50

Before answering, review these 5 worked examples.
COMPOUND | STUDY_TARGET | IC50
O=C1ON=C2COc3ccc(Br)cc3C=C12 | A549 | 49.1 µM
COc1cccc2c1C(=O)c1c(O)c3c(c(O)c1C2=O)C[C@@](O)(C(=O)CO)C[C@@H]3O[C@H]1C[C@H](N)[C@H](O)[C@H](C)O1 [DOXORUBICIN] | A549 | 7.47 µM
O=C1C2=Cc3cc(-c4ccccc4)ccc3OCC2=NN1c1ccc(Br)cc1 | A549 | 118 µM
Cc1ccc(N2N=C3COc4ccc(Br)cc4C=C3C2=O)cc1 | A549 | 163 µM
COc1ccc2c(c1)C=C1C(=O)N(c3ccc(C)cc3)N=C1CO2 | A549 | 199 µM

Turning to the following compound.
Given item "COc1ccc2c(c1)C=C1C(=O)N(c3ccc(Br)cc3)N=C1CO2" , the value recorded as its IC50 is 33.3 µM

---

Listed compounds paired with reported IC50
Test system: A549
MEASUREMENT_PROTOCOL: Cytotoxicity against human A549 cells after 48 hrs by MTT assay
Type: functional, cell-based
CONDITION_SUMMARY: Homo sapiens, A549, 48 h; read-out: IC50
Expressed in µM, but write only the number.

Record excerpt, results attached:
STRUCTURE | STUDY_TARGET | UNIT_TEXT | IC50
O=C1C2=Cc3ccccc3OCC2=NN1c1ccc(Cl)cc1 | A549 | µM | 215
COc1ccc2c(c1)C=C1C(=O)ON=C1CO2 | A549 | µM | 46.5
O=C1ON=C2COc3ccc(-c4ccccc4)cc3C=C12 | A549 | µM | 29.7

Pending compound:
So, "O=C1C2=Cc3ccccc3OCC2=NN1c1cccc(Cl)c1" ? Its IC50 was 244

---

Tested on: A549
MEASUREMENT_PROTOCOL: Cytotoxicity against human A549 cells after 48 hrs by MTT assay
Assay type: functional, cell-based
CONDITION_SUMMARY: Homo sapiens, A549, 48 h; read-out: IC50
MEASURED_PARAMETER: pIC50
The scale used: pIC50 is minus the common logarithm of the concentration in molar units.

Answered examples (3):
STRUCTURE | STUDY_TARGET | NUMERIC_READOUT
O=C1C2=Cc3cc(-c4ccccc4)ccc3OCC2=NN1c1ccccc1 | A549 | 3.93
O=C1C2=Cc3ccccc3OCC2=NN1c1cccc(F)c1 | A549 | 3.75
Cc1ccc(N2N=C3COc4ccccc4C=C3C2=O)cc1C | A549 | 4.07

Turning now to a further record.
Sample "COc1ccc(N2N=C3COc4ccccc4C=C3C2=O)cc1" ; pIC50 observed: 3.88
